Molecular target: Tumor necrosis factor (Homo sapiens, UniProt P01375)
Sequence (P01375 whole entry): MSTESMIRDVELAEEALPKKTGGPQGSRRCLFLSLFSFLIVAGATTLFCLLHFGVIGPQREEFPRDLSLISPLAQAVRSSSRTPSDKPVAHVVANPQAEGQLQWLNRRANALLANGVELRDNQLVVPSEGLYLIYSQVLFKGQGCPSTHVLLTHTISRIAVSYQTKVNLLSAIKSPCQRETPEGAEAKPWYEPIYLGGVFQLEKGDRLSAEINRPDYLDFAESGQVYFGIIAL
Assay: Inhibition of TNF-alpha production from human monocytes upon stimulation with bacterial lipopolysaccharide (LPS) at a concentration of 100 nM
Type: functional
Conditions: values are per cent of control
MEASURED PROPERTY: response, % of control (%)
Express your answer in %, writing the number without its unit.

Worked cases, response, % of control given:
1. O=C1c2c(F)c(F)c(F)c(F)c2C(=O)N1c1ccccc1
65
2. CC(C)c1cccc(C(C)C)c1N1C(=O)c2c(Cl)c(Cl)c(Cl)c(Cl)c2C1=O
75
3. CC(C)c1cccc(C(C)C)c1N1C(=O)c2c(F)c(F)c(F)c(F)c2C1=O
40
4. CC(C)c1cccc(C(C)C)c1N1C(=O)c2c(Br)c(Br)c(Br)c(Br)c2C1=O
80
5. O=C1CCC(N2C(=O)c3c(Br)c(Br)c(Br)c(Br)c3C2=O)C(=O)N1 (racemic)
70
6. Cc1cccc(C)c1N1C(=O)c2c(F)c(F)c(F)c(F)c2C1=O
62
7. O=C1CCC(N2C(=O)c3c(Cl)c(Cl)c(Cl)c(Cl)c3C2=O)C(=O)N1 (racemic)
80
8. O=C1CCC(N2C(=O)c3c(F)c(F)c(F)c(F)c3C2=O)C(=O)N1 (racemic)
85

Next compound, please.
Name the recorded response, % of control for "CC(C)(C)c1cccc(C(C)(C)C)c1N1C(=O)c2c(F)c(F)c(F)c(F)c2C1=O" .
40

----------
Target: Tumor necrosis factor (Homo sapiens, UniProt P01375)
Experiment: Inhibitory activity against TNF-alpha production
MEASURED PROPERTY: IC50 (nM)
Field format: number, assumed nM, no unit text.

I have this compound here, O=C1CCC(N2C(=O)c3c(F)c(F)c(F)c(F)c3C2=O)C(=O)N1 (racemic) , and I need its recorded IC50.
400

----------
Biological target: Tumor necrosis factor (Homo sapiens)
Experiment: Inhibition of TNF-alpha production from human monocytes upon stimulation with bacterial lipopolysaccharide (LPS) at a concentration of 464 nM
Type: functional
Conditions: values are per cent of control
Measured response, % of control of individual entries
The answer is to be given in %; state only the numeric part.

Find the recorded response, % of control belonging to O=C1CCC(N2C(=O)c3c(Cl)c(Cl)c(Cl)c(Cl)c3C2=O)C(=O)N1 (racemic) and report it.
80

Report response, % of control for "CC(C)(C)c1cccc(C(C)(C)C)c1N1C(=O)c2c(F)c(F)c(F)c(F)c2C1=O" please.
15

Consider the compound "CC(C)c1cccc(C(C)C)c1N1C(=O)c2c(Br)c(Br)c(Br)c(Br)c2C1=O" and give its measured response, % of control.
53

Given the compound "O=C1c2c(F)c(F)c(F)c(F)c2C(=O)N1c1ccccc1" , what is its reported response, % of control?
70

Name the recorded response, % of control for "CC(C)c1cccc(C(C)C)c1N1C(=O)c2c(F)c(F)c(F)c(F)c2C1=O" .
2

I would be grateful if you could share the reported response, % of control for O=C1CCC(N2C(=O)c3c(Br)c(Br)c(Br)c(Br)c3C2=O)C(=O)N1 (racemic) .
62

I'd like to know its response, % of control. The compound in question is "CC(C)c1cccc(C(C)C)c1N1C(=O)c2c(Cl)c(Cl)c(Cl)c(Cl)c2C1=O"
70

What value of response, % of control has been reported for the following compound? O=C1CCC(N2C(=O)c3c(F)c(F)c(F)c(F)c3C2=O)C(=O)N1 (racemic)
40

# lookup: response, % of control of "Cc1cccc(C)c1N1C(=O)c2c(F)c(F)c(F)c(F)c2C1=O"
30
